Each recorded value in this set is attributed to PubChem BioAssay.

// reported z-score for each item listed
- Assay notes: basal 3T3-L1 adipocyte mitochondrial potential changes, profiling panel, cell-based, JC-1 fluorescence, 3T3-L1 adipocytes, 24 h, 100 nL compound (AID 1168); note: test concentration not given here
- Recorded conditions: JC-1 mitochondrial fluorescence, higher = more signal, called active from +8 up or from −8 down
// return just the number, without any unit appended

For the compound O=C1C[C@@](C(=O)NCCN2CCOCC2)(c2ccc([N+](=O)[O-])cc2)[C@@H](c2ccc(CO)cc2I)N1C1CCCCC1 , what z-score is on record?
0.264

For the compound [N-]=[N+]=NCc1ccccc1C[C@@]1(C(=O)N2CCOCC2)N=C(c2ccc(OCCCO)cc2)O[C@@H]1c1ccccc1 , what z-score is on record?
0.86

For the compound CCOC(=O)C[C@H]1[C@H](OC(=O)Cc2ccc3c(c2)OCO3)[C@@H](NC(=O)Cc2ccc(OC)cc2)c2cc(OCCCO)ccc2N1C(=O)c1ccc2ccccc2n1 , what z-score is on record?
0.929

For the compound COC(=O)[C@H](Cc1ccccc1)N1CC(/C=C/C2CC2)=C[C@H]1[C@H](O)Cc1ccccc1 , what z-score is on record?
0.128

For the compound O=C1C2C=CC(C(O)c3ccccc3)N(Nc3ccccc3F)C2C(=O)N1c1ccccc1 (configuration not stated) , what z-score is on record?
-0.0776

For the compound CN(C)CCCNC(=O)[C@@]1(C)c2ccccc2C(=O)N(Cc2ccccc2)[C@H]1c1ccc(CO)cc1 , what z-score is on record?
0.457

For the compound COc1ccc(NC(=O)O[C@H]2[C@H](OC(=O)Nc3ccccc3)[C@@H](OC(=O)Nc3ccccc3)[C@@H](OC)O[C@@H]2CO)cc1 , what z-score is on record?
-0.261
